Consider the following compounds; for each one, report its pIC50.
Target: Avi-KRAS G12D (1-169) GppNHp/RAF1 RBD-3xFLAG (52-151) (Homo sapiens, UniProt P01116, G12D)
Construct: Avi-KRAS G12D (1-169)
Sequence (P01116 1-169 isoform P01116-2 G12D): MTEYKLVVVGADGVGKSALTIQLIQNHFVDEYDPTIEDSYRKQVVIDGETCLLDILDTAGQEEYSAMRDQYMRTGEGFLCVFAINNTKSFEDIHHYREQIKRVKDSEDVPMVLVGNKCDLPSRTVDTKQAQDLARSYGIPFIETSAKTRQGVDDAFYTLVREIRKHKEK
Assay: Raf1-KRAS G12D-GppNHP disruption HTRF assay (Biological Example 1)
Type: binding
Conditions: KRAS G12D, GppNHp-loaded; Table 11
pIC50: −log10 of the molar value.

q: // map CN(C[C@H](O)CO)c1nc(OC[C@@]23CCCN2C[C@H](F)C3)nc2c(F)c(-c3ccc(F)c4sc(N)c(C#N)c34)c(C(F)(F)F)cc12 to recorded pIC50 (system: Avi-KRAS G12D (1-169) GppNHp/RAF1 RBD-3xFLAG (52-151) (Homo sapiens, UniProt P01116, G12D))
a: > 7.00

q: GET /values?readout=pIC50&system=Avi-KRAS G12D (1-169) GppNHp/RAF1 RBD-3xFLAG (52-151) (Homo sapiens, UniProt P01116, G12D)&item= CN(c1nc(OC[C@@]23CCCN2C[C@H](F)C3)nc2c(F)c(-c3ccc(F)c4sc(N)c(C#N)c34)c(C(F)(F)F)cc12)C1CCOCC1
a: 6.00 to 7.00

q: Give Avi-KRAS G12D (1-169) GppNHp/RAF1 RBD-3xFLAG (52-151) (Homo sapiens, UniProt P01116, G12D) pIC50 for Nc1nc2c(-c3c(C(F)(F)F)cc4c(N5CCC(CO)C5)nc(OCC56CCCN5CCC6)nc4c3F)ccc(F)c2s1 (stereo not drawn)
a: 5.00 to 6.00

q: Identify the measured pIC50 of N#Cc1c(N)sc2c(F)ccc(-c3c(C(F)(F)F)cc4c(N5CC[C@@H](O)C5)nc(OC[C@@]56CCCN5C[C@H](F)C6)nc4c3F)c12 for Avi-KRAS G12D (1-169) GppNHp/RAF1 RBD-3xFLAG (52-151) (Homo sapiens, UniProt P01116, G12D).
a: 6.00 to 7.00

q: Avi-KRAS G12D (1-169) GppNHp/RAF1 RBD-3xFLAG (52-151) (Homo sapiens, UniProt P01116, G12D) / pIC50 / CN(C)c1nc(OC[C@@]23CCCN2C[C@H](F)C3)nc2c(F)c(-c3ccc(F)c4sc(N)c(C#N)c34)c(C(F)(F)F)cc12 : value?
a: > 7.00

q: Kindly state the measured pIC50 obtained for N#Cc1c(N)sc2c(F)ccc(-c3c(C(F)(F)F)cc4c(N5CCCC6(C5)NC(=O)NC6=O)nc(OC[C@@]56CCCN5C[C@H](F)C6)nc4c3F)c12 (stereo partly drawn) with Avi-KRAS G12D (1-169) GppNHp/RAF1 RBD-3xFLAG (52-151) (Homo sapiens, UniProt P01116, G12D).
a: 6.00 to 7.00

q: Give the reported pIC50 for N#Cc1c(N)sc2c(F)ccc(-c3c(C(F)(F)F)cc4c(N5CCOC6CC65)nc(OC[C@@]56CCCN5C[C@H](F)C6)nc4c3F)c12 (stereo partly drawn) (system: Avi-KRAS G12D (1-169) GppNHp/RAF1 RBD-3xFLAG (52-151) (Homo sapiens, UniProt P01116, G12D)).
a: 6.00 to 7.00

q: Value wanted: pIC50 (Avi-KRAS G12D (1-169) GppNHp/RAF1 RBD-3xFLAG (52-151) (Homo sapiens, UniProt P01116, G12D)) of entry Nc1nc2c(-c3c(C(F)(F)F)cc4c(N5CC(CO)C5)nc(OCC56CCCN5CCC6)nc4c3F)ccc(F)c2s1
a: 5.00 to 6.00

q: Which measured pIC50 belongs to CN(c1nc(OC[C@@]23CCCN2C[C@H](F)C3)nc2cc(-c3ccc(F)c4sc(N)c(C#N)c34)c(C(F)(F)F)cc12)[C@H]1C[C@@H](O)C1 , tested on Avi-KRAS G12D (1-169) GppNHp/RAF1 RBD-3xFLAG (52-151) (Homo sapiens, UniProt P01116, G12D)?
a: 6.00 to 7.00

q: Provide the documented pIC50 with Avi-KRAS G12D (1-169) GppNHp/RAF1 RBD-3xFLAG (52-151) (Homo sapiens, UniProt P01116, G12D) as the system for CC(=O)N1CC[C@H](N(C)c2nc(OC[C@@]34CCCN3C[C@H](F)C4)nc3c(F)c(-c4ccc(F)c5sc(N)c(C#N)c45)c(C(F)(F)F)cc23)[C@H]1C
a: 6.00 to 7.00

q: Please provide the recorded pIC50 for CN(c1nc(OC[C@@]23CCCN2C[C@H](F)C3)nc2c(F)c(-c3ccc(F)c4sc(N)c(C#N)c34)c(C(F)(F)F)cc12)[C@@H]1CCN(S(C)(=O)=O)C1 , tested on Avi-KRAS G12D (1-169) GppNHp/RAF1 RBD-3xFLAG (52-151) (Homo sapiens, UniProt P01116, G12D).
a: 6.00 to 7.00

q: Can you look up pIC50 on Avi-KRAS G12D (1-169) GppNHp/RAF1 RBD-3xFLAG (52-151) (Homo sapiens, UniProt P01116, G12D) for N#Cc1c(N)sc2c(F)ccc(-c3c(C(F)(F)F)cc4c(N5CCCS(=O)(=O)CC5)nc(OC[C@@]56CCCN5C[C@H](F)C6)nc4c3F)c12 ?
a: > 7.00

----------
Could you please report measured IC50 for the items listed next?
Molecular target: Avi-KRAS G12R (1-169) GppNHp/RAF1 RBD-3xFLAG (52-151) (Homo sapiens, UniProt P01116, G12R)
Construct: Avi-KRAS G12R (1-169)
Sequence (P01116 1-169 isoform P01116-2 G12R): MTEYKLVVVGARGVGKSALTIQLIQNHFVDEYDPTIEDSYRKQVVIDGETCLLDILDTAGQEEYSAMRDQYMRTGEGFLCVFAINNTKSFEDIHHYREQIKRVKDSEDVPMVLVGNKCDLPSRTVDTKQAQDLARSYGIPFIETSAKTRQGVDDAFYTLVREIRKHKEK
Assay: Raf1-KRAS G12R-GppNHP disruption HTRF assay (Biological Example 1)
Assay type: binding
Conditions: KRAS G12R, GppNHp-loaded; Table 11

q: IC50 for CN(c1nc(OC[C@@]23CCCN2C[C@H](F)C3)nc2c(F)c(-c3ccc(F)c4sc(N)c(C#N)c34)c(C(F)(F)F)cc12)[C@H]1C[C@H](O)C1 ?
a: 100 to 1000 nM

q: I am curious: what IC50 value has been reported for N#Cc1c(N)sc2c(F)ccc(-c3c(C(F)(F)F)cc4c(N5CCC6(CC5)CC(O)C6)nc(OC[C@@]56CCCN5C[C@H](F)C6)nc4c3F)c12 ?
a: 100 to 1000 nM

q: State the recorded IC50 for this entry: C[C@@H]1COCCN1c1nc(OC[C@@]23CCCN2C[C@H](F)C3)nc2c(F)c(-c3ccc(F)c4sc(N)c(C#N)c34)c(C(F)(F)F)cc12
a: 100 to 1000 nM

q: Endpoint output: IC50 of CN(c1nc(OC[C@@]23CCCN2C[C@H](F)C3)nc2c(F)c(-c3ccc(F)c4sc(N)c(C#N)c34)c(C(F)(F)F)cc12)[C@@H]1C[C@H](O)[C@H]1CC#N . Value?
a: 100 to 1000 nM

q: Record request: IC50 value, item N#Cc1c(N)sc2c(F)ccc(-c3c(C(F)(F)F)cc4c(N5CC[C@H]5CO)nc(OC[C@@]56CCCN5C[C@H](F)C6)nc4c3F)c12
a: 100 to 1000 nM

q: Could you share which IC50 value was measured for N#Cc1c(N)sc2c(F)ccc(-c3c(C(F)(F)F)cc4c(N5CCOCC(O)C5)nc(OC[C@@]56CCCN5C[C@H](F)C6)nc4c3F)c12 (some centres unmarked) ?
a: < 100 nM

q: So what does the record say about IC50 for C[C@@H]1C[C@H](O)CCN1c1nc(OC[C@@]23CCCN2C[C@H](F)C3)nc2c(F)c(-c3ccc(F)c4sc(N)c(C#N)c34)c(C(F)(F)F)cc12 ?
a: 100 to 1000 nM

q: # get_value(readout='IC50', item= N#Cc1c(N)sc2c(F)ccc(-c3c(C(F)(F)F)cc4c(N5C[C@@H]6C[C@H]5CO6)nc(OC[C@@]56CCCN5C[C@H](F)C6)nc4c3F)c12 )
a: 100 to 1000 nM

q: Data request, read-out IC50, for CN(c1nc(OC[C@@]23CCCN2C[C@H](F)C3)nc2c(F)c(-c3ccc(F)c4sc(N)c(C#N)c34)c(C(F)(F)F)cc12)[C@H]1CCS(=O)(=O)C1 (single isomer, unassigned) [Compound 220]
a: > 10000 nM

q: I would be grateful if you could share the reported IC50 for CN1CCC[C@H]1COc1nc(N(C)[C@H]2C[C@@H](O)C2)c2cc(C(F)(F)F)c(-c3ccc(F)c4sc(N)c(C#N)c34)c(F)c2n1 .
a: 100 to 1000 nM

q: Quick one: IC50 of CN(c1nc(OC[C@@]23CCCN2C[C@H](F)C3)nc2c(F)c(-c3ccc(F)c4sc(N)c(C#N)c34)c(C(F)(F)F)cc12)[C@@H]1C[C@H](O)[C@H]1CO ?
a: 100 to 1000 nM
